Origin of measurements: ChEMBL document CHEMBL4622974

molecular target: Alpha-1A adrenergic receptor (Rattus norvegicus, UniProt P43140); assay: Inhibition of rat adrenergic alpha1A receptor at 10 uM relative to control
Sequence (P43140 whole entry): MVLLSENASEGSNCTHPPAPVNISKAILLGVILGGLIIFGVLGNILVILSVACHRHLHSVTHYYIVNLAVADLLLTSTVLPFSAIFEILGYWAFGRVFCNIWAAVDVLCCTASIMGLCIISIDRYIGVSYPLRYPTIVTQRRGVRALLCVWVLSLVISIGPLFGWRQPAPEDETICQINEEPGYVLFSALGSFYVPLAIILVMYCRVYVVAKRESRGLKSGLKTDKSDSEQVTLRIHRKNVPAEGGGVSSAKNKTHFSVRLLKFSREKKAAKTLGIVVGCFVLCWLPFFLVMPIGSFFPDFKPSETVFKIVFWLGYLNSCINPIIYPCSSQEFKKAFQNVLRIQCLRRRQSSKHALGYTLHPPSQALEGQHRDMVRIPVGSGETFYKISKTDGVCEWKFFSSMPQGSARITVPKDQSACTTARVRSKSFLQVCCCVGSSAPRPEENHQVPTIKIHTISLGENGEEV
Observation Type: inhibition at 10 µM (%)
Express your answer in %, writing the number without its unit.

The compound identified as COc1cc(-c2cncc(-c3ccc(N4CCNCC4)cc3)c2C)cc(OC)c1OC registered its inhibition at 10 µM at 65

* * *

test: Plasma concentration in CD-1 mouse at 1 mg/kg, iv measured at 2 hrs by LC/MS/MS method; type: ADME, organism-based
Observation Type: concentration at 2 h (nM)
Express your answer in nM, writing the number without its unit.

The compound identified as COc1cc(-c2cncc(-c3ccc(N4CCNCC4)cc3)c2C)cc(OC)c1OC registered its concentration at 2 h at 156
